# key: entry, value: relative viability
- Test system: NCI-H1755
- Protocol Text: relative viability (nuclei count vs DMSO), 5 days (fraction); higher = more cells survive
- Condition Notes: first compound 0.08 µM
Reported Metric: relative viability

{"columns": ["Molecule", "Reported"],
 "data": [
  ["O=c1cc(-c2cccc3c2Sc2ccccc2S3)oc(N2CCOCC2)c1 + COc1cc2c(Oc3ccc(NC(=O)C4(C(=O)Nc5ccc(F)cc5)CC4)cc3F)ccnc2cc1OCCCN1CCOCC1 [Foretinib] (partner 0.25 µM)", 0.861],
  ["O=c1cc(-c2cccc3c2Sc2ccccc2S3)oc(N2CCOCC2)c1 + Nc1nc2[nH]cc(CCc3ccc(C(=O)N[C@@H](CCC(=O)O)C(=O)O)cc3)c2c(=O)[nH]1 [Pemetrexed] (partner 0.2 µM)", 0.572],
  ["O=c1cc(-c2cccc3c2Sc2ccccc2S3)oc(N2CCOCC2)c1 + CCNC(=O)c1noc(-c2cc(C(C)C)c(O)cc2O)c1-c1ccc(CN2CCOCC2)cc1 [Luminespib] (partner 0.01 µM)", 0.425],
  ["COc1nc(C)cnc1NS(=O)(=O)c1cccnc1-c1ccc(-c2nnco2)cc1 [Zibotentan] + O=C(CCCCCCC(=O)Nc1ccccc1)NO [Vorinostat] (partner 1 µM)", 0.851],
  ["COc1nc(C)cnc1NS(=O)(=O)c1cccnc1-c1ccc(-c2nnco2)cc1 [Zibotentan] + CCNC(=O)c1noc(-c2cc(C(C)C)c(O)cc2O)c1-c1ccc(CN2CCOCC2)cc1 [Luminespib] (partner 0.01 µM)", 0.338]
]}

====

- Test system: COR-L23
- Protocol Text: relative viability (nuclei count vs DMSO), 5 days (fraction); higher = more cells survive
- Condition Notes: first compound 0.1 µM

{"columns": ["Compound", "Target Or Test System", "relative viability"],
 "data": [
  ["O=c1cc(N2CCOCC2)oc2c(-c3cccc4c3sc3ccccc34)cccc12 + CC1(C)CCC(c2ccc(Cl)cc2)=C(CN2CCN(c3ccc(C(=O)NS(=O)(=O)c4ccc(N[C@H](CCN5CCOCC5)CSc5ccccc5)c(S(=O)(=O)C(F)(F)F)c4)cc3)CC2)C1 [Navitoclax] (partner 0.5 µM)", "COR-L23", 0.976],
  ["O=c1cc(N2CCOCC2)oc2c(-c3cccc4c3sc3ccccc34)cccc12 + CC(=O)c1c(C)c2cnc(Nc3ccc(N4CCNCC4)cn3)nc2n(C2CCCC2)c1=O [Palbociclib] (partner 0.5 µM)", "COR-L23", 0.317],
  ["O=c1cc(N2CCOCC2)oc2c(-c3cccc4c3sc3ccccc34)cccc12 + Cc1nc(Nc2ncc(C(=O)Nc3c(C)cccc3Cl)s2)cc(N2CCN(CCO)CC2)n1 [Dasatinib] (partner 0.075 µM)", "COR-L23", 0.566],
  ["O=c1cc(N2CCOCC2)oc2c(-c3cccc4c3sc3ccccc34)cccc12 + CS(=O)(=O)N1CCN(Cc2cc3nc(-c4cccc5[nH]ncc45)nc(N4CCOCC4)c3s2)CC1 [Pictilisib] (partner 1 µM)", "COR-L23", 0.846],
  ["O=c1cc(N2CCOCC2)oc2c(-c3cccc4c3sc3ccccc34)cccc12 + C[C@]1(O)C[C@@H](c2nc(-c3ccc4ccc(-c5ccccc5)nc4c3)c3c(N)nccn32)C1 [Linsitinib] (partner 1 µM)", "COR-L23", 1],
  ["O=c1cc(N2CCOCC2)oc2c(-c3cccc4c3sc3ccccc34)cccc12 + CS(=O)(=O)CCNCc1ccc(-c2ccc3ncnc(Nc4ccc(OCc5cccc(F)c5)c(Cl)c4)c3c2)o1 [Lapatinib] (partner 2 µM)", "COR-L23", 0.924],
  ["CCN(CC)CCCCNc1ncc2cc(-c3cc(OC)cc(OC)c3)c(NC(=O)NC(C)(C)C)nc2n1 + O=C(c1cc(Cc2n[nH]c(=O)c3ccccc23)ccc1F)N1CCN(C(=O)C2CC2)CC1 [Olaparib] (partner 8 µM)", "COR-L23", 0.368],
  ["CCN(CC)CCCCNc1ncc2cc(-c3cc(OC)cc(OC)c3)c(NC(=O)NC(C)(C)C)nc2n1 + CC(=O)c1c(C)c2cnc(Nc3ccc(N4CCNCC4)cn3)nc2n(C2CCCC2)c1=O [Palbociclib] (partner 0.5 µM)", "COR-L23", 0.341],
  ["O=c1cc(N2CCOCC2)oc2c(-c3cccc4c3sc3ccccc34)cccc12 + Nc1ncn([C@H]2C[C@H](O)[C@@H](CO)O2)c(=O)n1 [Decitabine] (partner 2 µM)", "COR-L23", 0.475],
  ["CCN(CC)CCCCNc1ncc2cc(-c3cc(OC)cc(OC)c3)c(NC(=O)NC(C)(C)C)nc2n1 + C[C@]1(O)C[C@@H](c2nc(-c3ccc4ccc(-c5ccccc5)nc4c3)c3c(N)nccn32)C1 [Linsitinib] (partner 1 µM)", "COR-L23", 1.15],
  ["CCN(CC)CCCCNc1ncc2cc(-c3cc(OC)cc(OC)c3)c(NC(=O)NC(C)(C)C)nc2n1 + Nc1ncn([C@H]2C[C@H](O)[C@@H](CO)O2)c(=O)n1 [Decitabine] (partner 2 µM)", "COR-L23", 0.461]
]}
